Please find below IC50 measurements for Glutamate carboxypeptidase 2 (Homo sapiens, UniProt Q04609), combined from several publications.
PARAMETER MEASURED: IC50 (nM)

Consider the worked cases shown below.
Data point: O=C(O)CCC(CCC(=O)NO)C(=O)O (stereo not drawn) ; IC50 = 2000

Data point: O=C(O)c1c(CCS)cccc1-c1ccccc1 ; IC50 = 75400

Data point: O=C(O)c1[nH]c2c(C(=O)O)cccc2c1CCS ; IC50 = 760

Data point: O=C(O)CCC(NC(=O)NC(CCCCNC(=O)C(Cc1ccc2ccccc2c1)NC(=O)CCC(NC(=O)CCC(NC(=O)c1ccc(F)nc1)C(=O)O)C(=O)O)C(=O)O)C(=O)O (stereo not drawn) ; IC50 = 8

Data point: O=C(O)c1cccc(-c2ccc(CS)cc2C(=O)O)c1 ; IC50 = 24.3

P. CC(C)(C)c1cc(CC(CCCC(=O)NO)C(=O)O)cc(C(=O)O)c1 (stereo not drawn)
Q. O=C(O)[C@H](C[C@H](F)C(=O)O)CP(=O)(O)O
query: Hey, which is lower on measured IC50, P or Q ? Use the label to indicate which entry you chose.
result: Q
(Q: 7 nM, P: 500 nM)

1. O=C(CSCCCC(Cc1cccc(C(=O)O)c1)C(=O)O)NO (stereo not drawn)
2. O=C(O)c1cccc(Cn2c(C(=O)O)c(CCS)c3ccccc32)c1
query: Lab note: check whether 1 or 2 shows the higher recorded IC50. Use the label to indicate which entry you chose.
result: 1
